method-summary: qHTS drug screen for cell cycle checkpoint inhibitors in PARPi-resistant BRCA-mutant ovarian cancer cell lines. (AID 1963452)
reported-conditions: PEO1/OlaR viability, CellTiter-Glo luminescence, 96 h; measured here: PEO4 Z-AUC; stronger effect = lower value
Threshold-based label: Z-AUC under -0.4 gives 1, Z-AUC not under -0.4 gives 0.

Reference set (2 entries):
C=CC(=O)Nc1cc2c(Nc3ccc(F)c(Cl)c3)ncnc2cc1OCCCN1CCOCC1 ... 1
O=C(O)Cn1nnc(-c2cc(N3CCC(Oc4cc(F)ccc4Br)CC3)no2)n1 ... 1

Q: hey, is Z-AUC for `CC(C)[C@H](C(=O)Nc1ccc(C(=O)NO)cc1)c1ccccc1` lower than -0.4 or not?
A: 1

Q: In the record for `COc1c(OCCCN2CCOCC2)ccc2c3n(c(=NC(=O)c4cnc(N)nc4)nc12)CCN3` , is Z-AUC less than -0.4?
A: 1

Q: Quick check: Z-AUC of `Clc1cccc(-n2nnnc2NCc2ccccc2Oc2ccccn2)c1Cl` under -0.4?
A: 0

Q: Problem: For the compound `CC(C)(C)OC(=O)Nc1ccc(-c2cc(C(=O)NCCCCCCC(=O)NO)no2)cc1` , is Z-AUC under -0.4?
A: 0

Q: Please check: Z-AUC for `Cn1cc(-c2[nH]c3cc(NC(=O)[C@H](N)C4CCCCC4)cc4c3c2C=NNC4=O)cn1` , strictly under -0.4 or not?
A: 1

Q: Threshold test, Z-AUC < -0.4: `COc1cc2c(cc1-c1c(C)noc1C)ncc1[nH]c(=O)n([C@H](C)c3ccccn3)c12`
A: 1

Q: Quick check: does `CC(=O)OCC(=O)[C@@]1(O)[C@H](C)C[C@H]2[C@@H]3C=C(C)C4=Cc5c(cnn5-c5ccccc5)C[C@]4(C)[C@@H]3[C@@H](O)C[C@@]21C` have Z-AUC under -0.4?
A: 0
